# Test system: Cryptococcus neoformans
# assay-procedure: Antifungal activity against Cryptococcus neoformans H99 assessed as reduction in fungal growth incubated for 72 hrs by CLSI based broth microdilution method
# Format: functional

compound	qualifying-sign	MIC, µg/mL
CC(=O)N1CCC(C(=O)NCCc2ccc(-c3ccc(C(F)(F)F)cc3)cc2)C1 (racemic)	>	128
CC(=O)N1CCCC1C(=O)NCCc1ccc(-c2ccc(C(F)(F)F)cc2)cc1 (racemic)	>	128
CCCC(N)C(=O)NCCc1ccc(OCc2ccc(Cl)c(Cl)c2)cc1.Cl (racemic)	=	8
O=C(NCCc1ccc(-c2ccc(Cl)c(Cl)c2)cc1)c1cccnc1	=	128
CCC(N)C(=O)NCCc1ccc(-c2ccc(Cl)c(Cl)c2)cc1.Cl (racemic)	=	8
CCCCC(N)C(=O)NCCc1ccc(-c2ccc(Cl)c(Cl)c2)cc1.Cl (racemic)	=	1

* * *

Listed molecules paired with reported log10(MIC)
# System: Cryptococcus neoformans
# assay-procedure: Antifungal activity against Cryptococcus neoformans H99 assessed as reduction in fungal growth incubated for 72 hrs by CLSI based broth microdilution method
# Assay type: functional
reported-metric: log10(MIC) (log10 of the value in µg/mL)

molecule	log10(MIC)
CCCCC(NC)C(=O)NCCc1ccc(-c2ccc(OC(F)(F)F)cc2)cc1.Cl (racemic)	0.60
CC(NCCc1ccc(OCc2ccccc2F)cc1)C(N)=O.CS(=O)(=O)O (stereo not given)	2.11
Cl.O=C(NCCc1ccc(-c2ccc(C(F)(F)F)cc2)cc1)C1CCNC1 (racemic)	1.81
CC(NCCc1ccc(Oc2ccc(Cl)c(Cl)c2)cc1)C(N)=O.CS(=O)(=O)O (racemic)	0.90
CC(NCCc1ccc(OCc2cccc(Cl)c2)cc1)C(N)=O.CS(=O)(=O)O (racemic)	1.51

// provenance: ChEMBL document CHEMBL5030558
